Taken from a melting point compilation (Tetko et al.; mined from patent text by program, amines drawn as free bases though some values may be those of a salt).

The reader will find reported melting point values listed item by item below.

The following molecules have reported results that may help.
molecule	test_value
CCOC(=O)c1cc2c3n(ccc-2n1)CC(C(C)C)=N3	207 to 209 °C
CCOC(=O)C1=C(COCCN)NC=C(C(=O)OC)C1c1cccc(C(F)(F)F)c1Cl (centres undefined)	122 °C
COCCNC1CCc2cc(Nc3ncc(Cl)c(Nc4c(OC)ccc5c4CN(S(C)(=O)=O)CC(=O)N5)n3)c(OC)cc2CC1 (centres undefined)	110 to 114 °C

Look up melting point: COc1ccc(O)c(C(=O)Nc2cc(Cl)cc(Cl)c2)c1
230 to 232 °C

Another molecule to check: CCCCn1cc(C(=O)OCC)c(NC(=S)Nc2ccccc2)n1
93 to 95 °C

---

The reader will find reported melting point values listed item by item below.

Look up melting point: Cc1nc2ccccc2c(=O)n1CCO
159 to 160 °C

---

experimental_endpoint: melting point

The following compounds have reported results that may help.
compound	melting point
O=C(Nc1ccc(/C=C/CO)c(F)c1)OCc1ccccc1	105 to 106 °C
CC(C)(C)c1cc(SCCC(=O)O)cc(C(C)(C)C)c1O	108 to 110 °C

Turning now to a further record.
Look up melting point: O=C(C=Cc1cccc(S(=O)(=O)NCc2cccnc2)c1)NO
191 °C

---

The reader will find reported melting point values listed item by item below.

Look up melting point: CC(C)(C)OC(=O)n1nc2nc3n(c(=O)c2c1N)CCS3
> 300 °C

Another compound to check: Cc1cncc(C)c1-c1c(C)cc(C=Cc2ccc(C(C#N)C#N)cc2)cc1C
58 to 60 °C

Another compound to check: FC(F)(F)Oc1ccc2[nH]c(-c3ccco3)nc2c1
165 to 167 °C

Another compound to check: CSc1nc(F)cc2nnc(SCc3ccccc3)n12
74 to 77 °C

Another compound to check: O=C(c1ccncc1)c1cc(-c2ccccc2)c(N2CCOCC2)s1
149 °C

Another compound to check: Cc1cccnc1-n1c(=S)nc2c(C)cccn2c1=S
131 to 132 °C

Another compound to check: Nc1ccc2oc(Cc3ccccc3)cc2c1
< 50 °C

Another compound to check: Cc1ccc(C(F)(F)C(F)(F)c2ccc(Br)cc2)cc1
104 to 106 °C

---

experimental_endpoint: melting point (°C)

1 = O=c1c2ccccc2oc2cc(-c3nnn[nH]3)ccc12
2 = CCOC(=O)C1=C(COCCNc2nc(C(=O)NC)cs2)NC(C)=C(C(=O)OC)C1c1ccccc1Cl (stereo not given)
3 = CC(C)Oc1ccc(F)c(N2C(=O)C3=C(CCCC3)C2=O)c1
Rank by melting point (largest to smallest). Give the labels in the order specified.
1, 2, 3
(1: 296 °C, 2: 120 °C, 3: 62.8 °C)

---

experimental_endpoint: melting point

The following molecules have reported results that may help.
molecule	melting point
Nc1ccc2ccc(-c3ccc(Cl)cc3)nc2n1	130 °C
O=C(c1ccccc1)N(CC(=O)N1c2ccccc2N(Cc2ccccc2)C(=O)[C@H]2CCC[C@H]21)Cc1ccccc1 (relative stereo)	166 to 168 °C
Cc1cc(=O)n2c3c(cc(C(OCc4ccccc4)(C(F)(F)F)C(F)(F)F)cc13)CC2	207 to 208 °C
COCc1cn(-c2cccc(C(F)(F)F)c2)nc(-c2ccnn2-c2ccccc2)c1=O	137 to 139 °C
CS(=O)(=O)c1ccc(C2=CC(=O)C3(CCOCC3)O2)cc1	163 to 165 °C

Look up melting point: O=C(c1ccccc1)N(CCCn1cncn1)C1=Nc2cccc3cccc1c23
140 to 141 °C

Another molecule to check: COCc1ccc(C(=O)O)c2ccccc12
133 to 134 °C

Another molecule to check: CC1=C(C(=O)OC(C)(C)C)C(c2cccc(F)c2)C(C(=O)OC(C)(C)C)=C(C)N1
178 to 179 °C

Another molecule to check: CCCCc1nc(Cl)c(CC(=O)OCC)c(Cc2ccc(C(=O)O)cc2)n1
130 °C

Another molecule to check: O=c1ccc(S(=O)(=O)c2cc3cc(Cl)ccc3[nH]2)n[nH]1
> 250 °C

Another molecule to check: CC(=O)OCC1CC(OC(C)=O)C(n2cc(C(I)=CI)c(=O)[nH]c2=O)O1 (stereo not given)
75 to 77 °C

Another molecule to check: O=C1OC(COc2ccccc2)CN1CCOC1CCCCO1 (stereo not given)
78 to 80 °C

Another molecule to check: COc1ccc(-c2nc(C(F)(F)F)cn2-c2ccc(C#N)cc2)cc1
146 to 148 °C

Another molecule to check: COc1cccc(-c2cn(-c3ccc(C(=O)O)cc3)nn2)c1
276 to 277 °C

Another molecule to check: CN1CCN(c2cnc3ccccc3n2)CC1
109 to 111 °C
